Exercise: for every item that follows, state its recorded melting point.

Molecule | melting point
Cn1nc(-c2ccccn2)c(-c2ccc(F)cc2)c1N | 164 to 166 °C

Each of the following entries comes with a recorded value; kindly state melting point for each.
1. O=Cc1ccc(Cl)c2cccnc12
2. CCOC(=O)c1ccc2c(c1)NC(=O)C(C)N2 (configuration not stated)
3. O=Cc1ccc(OCc2cccnc2)cc1

132 to 134 °C
181 to 183 °C
75 to 77 °C

---

Parameter measured: melting point

Molecule | Experimental result
CC1(c2c(F)cccc2F)CC1C(=O)O (stereo unspecified) | 113 to 115 °C
O=Cc1ccc(OC(F)(F)C(=O)O)cc1 | 146 to 148 °C
CCOC(=O)c1ccc2c(c1)nc(S)n2CC | 152 to 154 °C
O=C(O)c1cccnc1-n1ccnc1 | 179 to 181 °C
COC(=O)c1cc(F)cc(S(=O)(=O)Cl)c1Br | 73 to 75 °C

Here is the next item to consider.
Quick one: melting point of "O=C(COc1ccccc1C(=O)O)Nc1ccc(Br)cc1" ?
241 to 243 °C
